# literature pull: UniProt:P24941 IC50

- COC[C@H](Cc1ccc(O)cc1)NC(=O)c1cc(C(=O)O)c2cc(-c3cccc(C(F)(F)F)c3)ccc2n1: > 10 µM
- Cc1cccc(Cl)c1NC(=O)c1cnc(NC(=O)C2CC2)s1: > 25 µM
- CCCCCCc1ccc2nc(C(=O)N[C@@H](Cc3ccc(O)cc3)C(=O)OC)cc(C(=O)O)c2c1: > 10 µM
- N#Cc1cnc2ccn(-c3ccnc(N)n3)c2c1: > 83 µM
- COc1ccc2c(-c3ccnc(Nc4cc(C(F)(F)F)cc(C(F)(F)F)c4)n3)cnn2n1: > 20 µM

I am curious: what IC50 value has been reported for CN(C)CC(O)COc1ccc(Nc2cc(Nc3ccc(Cl)cc3)ncn2)cc1 (stereo unspecified) ?
> 100 µM

I am curious: what IC50 value has been reported for `COC(=O)[C@H](Cc1ccc(O)cc1)NC(=O)c1cc(CO)c2cc(-c3cccc(C(F)(F)F)c3)ccc2n1` ?
> 10 µM

I am curious: what IC50 value has been reported for `COc1ccc(/C=C\c2cc(OC)c(OC)c(OC)c2)cc1NC(=O)CCC(=O)N[C@@H](CCCNC(=N)N)C(=O)O` ?
> 10 µM

I am curious: what IC50 value has been reported for `CN1CCN(c2ccc(Nc3nccc(-c4cnn5nc(-c6ccc(F)cc6)ccc45)n3)cc2)CC1` ?
0.74 µM

I am curious: what IC50 value has been reported for `Nc1nc(-c2cc(N3C[C@H](O)[C@@H](O)C3)ccc2O)cc(N2CCOCC2)n1` ?
0.94 µM

I am curious: what IC50 value has been reported for `O=C(N[C@@H](c1ccc(Cl)c(Cl)c1)C1CCN(Cc2ccc(C(F)(F)F)cc2)CC1)c1ccc2cnccc2c1` ?
> 25 µM
